molecular target: Fatty acid-binding protein, adipocyte (Homo sapiens); assay: Inhibition of human A-FABP by fluorescence polarization assay
Sequence (P15090 whole entry): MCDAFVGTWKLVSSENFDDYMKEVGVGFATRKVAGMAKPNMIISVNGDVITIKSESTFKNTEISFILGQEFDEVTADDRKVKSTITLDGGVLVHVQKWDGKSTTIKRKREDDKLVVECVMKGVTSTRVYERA
pIC50: −log10 of the molar value.
Classify as follows. Reported pIC50 greater than or equal to 6: yes. Reported pIC50 below: no.

# structure, cat
data = [
    ("O=C(O)c1cccc2c3c(n(Cc4ccccc4)c12)CCCCC3", "yes"),
    ("O=C(O)c1cccc2c3c(n(Cc4ccc(C(F)(F)F)cc4)c12)CCCCC3", "no"),
    ("O=C(O)c1cccc2c3c(n(Cc4cccc(C(F)(F)F)c4)c12)CCCC3", "no"),
    ("O=C(O)c1cccc2c3c(n(Cc4cccc(F)c4)c12)CCCC3", "yes"),
    ("Cc1c(C)n(Cc2ccccc2)c2c(C(=O)O)cccc12", "no"),
]
